B1: TFE3 (parent)
chain: FHLGLEDILMEEEEGVVGGLSGGA

variants of: B1; assay: protein stability index of a GFP-peptide fusion (GPS, HEK-293T) (PSI 1-6); higher = more stable; settings: c terminus: a fixed tail appended;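 also: lentivirally expressed fusions sorted by FACS into six bins by GFP to DsRed ratio, PSI derived from sequencing read proportions per bin multiplied by bin number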
ASSAY METRIC: protein stability index
Answer with a number only.

Consider the reported protein stability index for these variants:
| VARIANT NAME | protein stability index |
| --- | --- |
| L5G | 4.52 |
| L5D | 4.38 |
| E6T | 3.04 |

Prompt: // fetch protein stability index given entry G22Q
Response: 3.67

Prompt: // fetch protein stability index given entry E11R
Response: 3.33

Prompt: Report protein stability index for G23E
Response: 4.87

Prompt: Using known records, supply protein stability index for L9H
Response: 4.08

Prompt: Read off the recorded protein stability index for G22W
Response: 2.85

Prompt: Give me measured protein stability index, please, for this variant: G4N
Response: 3.48
